Species on record: Homo sapiens
assay: Inhibition of human recombinant topoisomerase 1 expressed in Escherichia coli assessed as drug level causing 10% mediated DNA cleavage relative to topotecan
experimental readout: Activity

// known answers, use as guide
compound: CN(C)CCn1c(=O)c2ccc(NC(=O)CN(C)C)cc2c2cnc3cc4c(cc3c21)OCO4
Activity: > 20
--
compound: CCCCn1c(=O)c2cc(N)ccc2c2cnc3cc4c(cc3c21)OCO4
Activity: > 20
--
compound: CCCCn1c(=O)c2ccc(NCCN(C)C)cc2c2cnc3cc4c(cc3c21)OCO4
Activity: > 20
--
compound: CN(C)CCn1c(=O)c2ccc([N+](=O)[O-])cc2c2cnc3cc4c(cc3c21)OCO4
Activity: 0.1

Req: Item CN(C)CCn1c(=O)c2cc(NC(=O)CN(C)C)ccc2c2cnc3cc4c(cc3c21)OCO4 has what recorded Activity?
Resp: > 20

Req: Item CC[C@@]1(O)C(=O)OCc2c1cc1n(c2=O)Cc2cc3ccccc3nc2-1 [CAMPTOTHECIN] has what recorded Activity?
Resp: 0.2
